Tested on: CHO-MG
Protocol description: Cellular uptake in CHO-MG cells at 10 uM
Type: ADME, cell-based, Cricetulus griseus
Assay setup: chinese hamster
Drug uptake: recorded values
// note: answer is a bare numeric in nmol/mg

Guide cases for Drug uptake, answers given:
INSERT INTO assay_data (compound, endpoint, number) VALUES
  ('NCCCCNCCCNC1=Nc2ccccc2CC1', 'Drug uptake', 1.6),
  ('NCCCCNC1=Nc2ccccc2CC1', 'Drug uptake', 0.37),
  ('CN(c1ccccc1)C1c2ccccc2N=C(NCCCCN)C1(C)C (centres undefined)', 'Drug uptake', 12);

Consider now this further compound.
I have this compound here, "NCCCNCCCCNCCCNC1=Nc2ccccc2CC1" , and I need its recorded Drug uptake.
0.022

All figures here come from ChEMBL document CHEMBL1148584.
